Test system: VchCAST RNA-guided transposition machinery (E. coli BL21(DE3) host, lacZ target)
experiment description: relative integration efficiency (T-LR orientation) vs wild-type transposon end (log2 (normalized fold change)); transposon end mutated: right end (5 bp flank + 75 bp right end); higher = more efficient transposition
This section presents sequences with their documented relative integration efficiency (log2) values.

sequence input	target under test	relative integration efficiency (log2)
ACATTTGTTGATACAACCATAAAATGATAATTACACCCATAAATTGATAATTATCACACCCATAAATTGATATTGCCTCTGTTGACAGCTAGCTCAGTCCTAGGTATAATGCTAGCCGCACCGACAC	VchCAST RNA-guided transposition machinery (E. coli BL21(DE3) host, lacZ target)	0.147
ACATTTGTTGATACAACCATAAAATGATAATTACACCCATAAATTGATAATTATCACACCCATAAATTGATATTGCCTCTGATCATACAACCATAAAATGATAATTAGTCAGACCAAGCACCGACAC	VchCAST RNA-guided transposition machinery (E. coli BL21(DE3) host, lacZ target)	-0.751
ACATTTGTTGATACAACCATAAAATGATAATTACACCCATAAATTGATACGGCTCACACCCATAAATTGATATTGCCTCTGATCATAGTCAGACCAACATTGCTACGACCCGTATTCGCACCGACAC	VchCAST RNA-guided transposition machinery (E. coli BL21(DE3) host, lacZ target)	0.173
ACATTTGTACTAACAACCATAAAATGATAATTACACCCATAAATTGATAATTATCACACCCATAAATTGATATTGCCTCTGATCATAGTCAGACCAACATTGCTACGACCCGTATTCGCACCGACAC	VchCAST RNA-guided transposition machinery (E. coli BL21(DE3) host, lacZ target)	-4.23
ACATTTGTTGATACAACCATAAAAGGATCATTACACCCATCAATTGATAATTATCCCACCCCATTTAACTATAACGCTCTGATCATAGTCAGACCAACATTGCTACGACCCGTATTCGCACCGACAC	VchCAST RNA-guided transposition machinery (E. coli BL21(DE3) host, lacZ target)	-0.014

This collection of values is drawn from the supplement of paper PMC10201428.
